Taken from patent US10294202B2.

- System: barnyardgrass
- test.summary: Test A pre-/postemergence herbicide test
- Type: in vivo, Echinochloa crus-galli
- test.parameters: Preemergence, 500 g ai/ha; visual rating on 0 to 100 scale (0 no effect, 100 complete control)
Barnyardgrass plant response rating reference
Keep the answer to the number alone.

Example cases with answers are listed next.
>>> observed_value("CC(C)c1cccc(C2CNC(=O)C2C(=O)Nc2ccccc2C(F)(F)F)c1 (stereo not shown) [Compound 320]")
80
>>> observed_value("CC(C)c1cccc(C2CNC(=O)C2C(=O)Nc2ccccc2F)c1 (stereo not shown) [Compound 318]")
90
>>> observed_value("O=C1NCC(c2cccc(Br)c2)C1C(=O)Nc1ccccc1Cl (stereo not shown) [Compound 311]")
80
>>> observed_value("O=C1NCC(c2cccc(OC(F)F)c2)C1C(=O)Nc1ccccc1F (stereo not shown) [Compound 323]")
90

Note to self: Barnyardgrass plant response rating recorded for O=C1NCC(c2ccc(SC(F)(F)F)cc2)C1C(=O)Nc1ccc(F)c(F)c1F (stereo not shown) [Compound 322] was 40

Note to self: Barnyardgrass plant response rating recorded for CN1CC(c2ccc(C(F)(F)F)cc2)C(C(=O)Nc2cccc(F)c2F)C1=O (stereo not shown) [Compound 306] was 90

Note to self: Barnyardgrass plant response rating recorded for CN1CC(c2cccc(C(F)(F)F)c2)C(C(=O)Nc2cccc(F)c2F)C1=O (stereo not shown) [Compound 305] was 90
